The reader will find reported pEC50 values listed item by item below.
experimental-system: T1, catalytic domain of MMP-14 (cdMMP-14) (human, UniProt P50281 114-287, limits assumed, biotinylated (Sulfo-NHS-LC-Biotin) where immobilised via streptavidin)
T1 construct: also called matrix metalloproteinase-14 catalytic domain; wild-type MMP-14
method-notes: ELISA, Fab titrated on immobilised MMP-14 catalytic domain, anti-Fab-HRP
pEC50 here: minus log base 10 of the concentration, concentration in moles per litre.

Solved entries (count: 4):
1) Fab 32E10 (Fab, V domains shown, also called R2C19; not shown: His tag at the C-terminus of the heavy chain) VH: EVQLVESGGGLVQPGGSLRLSCAASGFNIYSYSMHWVRQAPGKGLEWVAYIYPYSGYTYYADSVKGRFTISADTSKNTAYLQMNSLRAEDTAVYYCARLDRDRYIHVGRAGNTYSNYYYVMDYWGQGTLVTVSS VL: DIQMTQSPSSLSASVGDRVTITCRASQSVSSAVAWYQQKPGKAPKLLIYSASSLYSGVPSRFSGSRSGTDFTLTISSLQPEDFATYYCQQPWGAASLITFGQGTKVEIKR	8.01
2) Fab 33F5 (Fab, V domains shown, also called R2C20; not shown: His tag at the C-terminus of the heavy chain) VH: EVQLVESGGGLVQPGGSLRLSCAASGFNLYYSYMHWVRQAPGKGLEWVAYISPSSSSTYYADSVKGRFTISADTSKNTAYLQMNSLRAEDTAVYYCARNFRVESAGRPGKTVLRKDGKYAMDYWGQGTLVTVSS VL: DIQMTQSPSSLSASVGDRVTITCRASQSVSSAVAWYQQKPGKAPKLLIYSASSLYSGVPSRFSGSRSGTDFTLTISSLQPEDFATYYCQQSSVGLFTFGQGTKVEIKR	5.80
3) Fab 2E4 (Fab, V domains shown, not shown: His tag at the C-terminus of the heavy chain) VH: EVQLVESGGGLVQPGGSLRLSCAASGFNLSYSYIHWVRQAPGKGLEWVAYISSSSGYTYYADSVKGRFTISADTSKNTAYLQMNSLRAEDTAVYYCARSARLRLRGNHDRRRSKSVYYRPYVMDYWGQGTLVTVSS VL: DIQMTQSPSSLSASVGDRVTITCRASQSVSSAVAWYQQKPGKAPKLLIYSASSLYSGVPSRFSGSRSGTDFTLTISSLQPEDFATYYCQQSSPSFPITFGQGTKVEIKR	6.08
4) Fab 33C4 (Fab, V domains shown, also called R2C3; not shown: His tag at the C-terminus of the heavy chain) VH: EVQLVESGGGLVQPGGSLRLSCAASGFNLYSSSMHWVRQAPGKGLEWVASIYPYYGYTYYADSVKGRFTISADTSKNTAYLQMNSLRAEDTAVYYCARPTTSRVNKKLFRVSVLHPGSYGMDYWGQGTLVTVSS VL: DIQMTQSPSSLSASVGDRVTITCRASQSVSSAVAWYQQKPGKAPKLLIYSASSLYSGVPSRFSGSRSGTDFTLTISSLQPEDFATYYCQQASYLITFGQGTKVEIKR	6.66

Enquiry: Any idea what pEC50 was measured for Fab 32D1 (Fab, V domains shown, not shown: His tag at the C-terminus of the heavy chain) VH: EVQLVESGGGLVQPGGSLRLSCAASGFNLYYSYMHWVRQAPGKGLEWVASISPYSGYTYYADSVKGRFTISADTSKNTAYLQMNSLRAEDTAVYYCARMSLHRNFNQQGRSRLLGRMPRTYGMDYWGQGTLVTVSS VL: DIQMTQSPSSLSASVGDRVTITCRASQSVSSAVAWYQQKPGKAPKLLIYSASSLYSGVPSRFSGSRSGTDFTLTISSLQPEDFATYYCQQYYSLITFGQGTKVEIKR ?
Return: 6.46

Enquiry: And for Fab 3A2 (Fab, V domains shown, also called R3C9; not shown: His tag at the C-terminus of the heavy chain) VH: EVQLVESGGGLVQPGGSLRLSCAASGFNLSSSSMHWVRQAPGKGLEWVASIYPSYSYTYYADSVKGRFTISADTSKNTAYLQMNSLRAEDTAVYYCARVKLQKDKSHQWIRNLVATPYGRYVMDYWGQGTLVTVSS VL: DIQMTQSPSSLSASVGDRVTITCRASQSVSSAVAWYQQKPGKAPKLLIYSASSLYSGVPSRFSGSRSGTDFTLTISSLQPEDFATYYCQQYGYPITFGQGTKVEIKR ?
Return: 8.42

Enquiry: And for Fab 3F3 (Fab, V domains shown, also called R2C13; not shown: His tag at the C-terminus of the heavy chain) VH: EVQLVESGGGLVQPGGSLRLSCAASGFNIYSSSMHWVRQAPGKGLEWVAYIYPYSGYTYYADSVKGRFTISADTSKNTAYLQMNSLRAEDTAVYYCARLYNGWLMVEGIGSAREGPTWYAMDYWGQGTLVTVSS VL: DIQMTQSPSSLSASVGDRVTITCRASQSVSSAVAWYQQKPGKAPKLLIYSASSLYSGVPSRFSGSRSGTDFTLTISSLQPEDFATYYCQQGGVYAAHPFTFGQGTKVEIKR ?
Return: 7.47
